target.or.system: high molecular weight kininogen (single-chain) (UniProt P01042 19-644)
Sequence (P01042 19-644): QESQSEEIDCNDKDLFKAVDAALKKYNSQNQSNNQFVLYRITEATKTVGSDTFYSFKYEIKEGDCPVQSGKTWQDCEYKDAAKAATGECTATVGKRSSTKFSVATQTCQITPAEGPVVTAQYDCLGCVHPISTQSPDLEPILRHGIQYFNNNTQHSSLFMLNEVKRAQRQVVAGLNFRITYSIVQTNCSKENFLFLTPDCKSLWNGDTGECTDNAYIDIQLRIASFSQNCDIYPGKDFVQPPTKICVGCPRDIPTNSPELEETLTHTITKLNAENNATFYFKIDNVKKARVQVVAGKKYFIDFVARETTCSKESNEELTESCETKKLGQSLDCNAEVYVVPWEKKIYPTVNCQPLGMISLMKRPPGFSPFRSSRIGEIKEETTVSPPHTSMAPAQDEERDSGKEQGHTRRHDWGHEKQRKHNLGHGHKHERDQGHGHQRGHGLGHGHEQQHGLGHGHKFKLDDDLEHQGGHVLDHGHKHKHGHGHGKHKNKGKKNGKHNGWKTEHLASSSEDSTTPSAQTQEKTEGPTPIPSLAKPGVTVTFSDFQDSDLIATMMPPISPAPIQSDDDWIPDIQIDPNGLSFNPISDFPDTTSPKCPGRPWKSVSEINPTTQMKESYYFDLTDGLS
procedure.summary: microtiter plate binding assay (streptavidin-peroxidase); Proteins coated at 10 ug/mL in 100 mM sodium carbonate pH 9.5 (4 C, 20 h); blocked with TBS + 3% BSA; biotinylated DNA 0.31-50 ug/mL, 22 C, 2 h; TBS washes; binding buffer composition and pH not stated
experimental.setup: protein: commercial; hairpin, blunt-ended
readout: Kd

The binder GGGAATGGGTATTCCCATCCC (structured_DNA) [21mer-H1 DNA] showed Kd equal to 1.82 µM
